Molecular target: T1, human GIP receptor (human, UniProt P48546 22-466)
T1 sequence (looked up): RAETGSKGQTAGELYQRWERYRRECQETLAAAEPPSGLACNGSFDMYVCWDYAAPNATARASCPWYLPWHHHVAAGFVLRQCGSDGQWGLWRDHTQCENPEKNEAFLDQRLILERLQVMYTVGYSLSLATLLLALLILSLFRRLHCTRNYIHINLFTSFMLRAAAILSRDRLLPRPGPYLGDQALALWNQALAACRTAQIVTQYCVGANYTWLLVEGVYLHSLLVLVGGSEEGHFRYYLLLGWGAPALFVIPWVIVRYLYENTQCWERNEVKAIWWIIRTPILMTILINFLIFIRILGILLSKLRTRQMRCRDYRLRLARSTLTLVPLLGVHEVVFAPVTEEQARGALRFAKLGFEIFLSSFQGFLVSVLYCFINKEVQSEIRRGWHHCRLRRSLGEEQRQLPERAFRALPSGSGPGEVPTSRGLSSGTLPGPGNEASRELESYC
Test: cell-based or functional assay
Cut-off 70 fold on fold (EC50 vs native GIP), inclusive. At or above means rule met; below means rule not met.

INSERT INTO measurements (binder, label_class) VALUES
  ('HADGTFIDDYSTILDNLAARDFINWLIQTKITD [GIP-GLP-2 co-agonist 14]', 'rule not met'),
  ('HAEGTFISDYSTILDNIHQQDFINWLIQTKITD [GIP-GLP-2 co-agonist 8]', 'rule not met'),
  ('HADGTFISDYSTILDNLAARDFINWLIQTKITK [GIP-GLP-2 co-agonist 18]', 'rule not met'),
  ('HAEGTFISDYSTILDNLAARDFINWLIQTKGKK [GIP-GLP-2 co-agonist 10]', 'rule not met'),
  ('HADGTFSSDYSTILDNLAARDFINWLIQTKITD [GIP-GLP-2 co-agonist 13]', 'rule met'),
  ('HAEGTFISDMNTILDNLAARDFINWLIQTKITD [GIP-GLP-2 co-agonist 6]', 'rule met');
